meta.source: BigSolDB 2.1

conditions: in isopropanol, 323.15 K
PROPERTY_MEASURED: solubility (mole fraction)
Give the value as a plain number.

The molecule CNC[C@H](O)[C@@H](O)[C@H](O)[C@H](O)CO.Cc1c(Nc2ncccc2C(=O)O)cccc1C(F)(F)F showed solubility (mole fraction) equal to 0.00642

----------
conditions: in acetonitrile, 318.15 K
PROPERTY_MEASURED: solubility (mole fraction)

# solubility (mole fraction) (compound: CNC[C@H](O)[C@@H](O)[C@H](O)[C@H](O)CO.Cc1c(Nc2ncccc2C(=O)O)cccc1C(F)(F)F ) is 0.00035

----------
settings: in isopropanol, 298.15 K
PROPERTY_MEASURED: solubility (mole fraction)
Returns: the value as a bare number; no unit string appended.

response.value for CNC[C@H](O)[C@@H](O)[C@H](O)[C@H](O)CO.Cc1c(Nc2ncccc2C(=O)O)cccc1C(F)(F)F (field: solubility (mole fraction)) = 0.00118

----------
details: in acetone, 283.15 K
PROPERTY_MEASURED: solubility (mole fraction)

solubility (mole fraction) reading for CNC[C@H](O)[C@@H](O)[C@H](O)[C@H](O)CO.Cc1c(Nc2ncccc2C(=O)O)cccc1C(F)(F)F : 0.00077

----------
details: in acetone, 288.15 K
PROPERTY_MEASURED: solubility (mole fraction)
Give the figure by itself; no unit, no explanation.

Field solubility (mole fraction) (entry CNC[C@H](O)[C@@H](O)[C@H](O)[C@H](O)CO.Cc1c(Nc2ncccc2C(=O)O)cccc1C(F)(F)F ) reads 0.000937

----------
settings: in water, 328.15 K
PROPERTY_MEASURED: solubility (mole fraction)

CNC[C@H](O)[C@@H](O)[C@H](O)[C@H](O)CO.Cc1c(Nc2ncccc2C(=O)O)cccc1C(F)(F)F yielded solubility (mole fraction) of 0.0807

----------
conditions: in isopropanol, 313.15 K
PROPERTY_MEASURED: solubility (mole fraction)
// return just the number, without any unit appended

What the record says about CNC[C@H](O)[C@@H](O)[C@H](O)[C@H](O)CO.Cc1c(Nc2ncccc2C(=O)O)cccc1C(F)(F)F : solubility (mole fraction) is 0.00299

----------
settings: in water, 283.15 K
PROPERTY_MEASURED: solubility (mole fraction)
// no unit, no text: just the number

Please fill in: solubility (mole fraction) reported for CNC[C@H](O)[C@@H](O)[C@H](O)[C@H](O)CO.Cc1c(Nc2ncccc2C(=O)O)cccc1C(F)(F)F = 0.00738

----------
conditions: in methanol, 328.15 K
PROPERTY_MEASURED: solubility (mole fraction)
Answer with a bare number; do not write a unit.

Record summary for CNC[C@H](O)[C@@H](O)[C@H](O)[C@H](O)CO.Cc1c(Nc2ncccc2C(=O)O)cccc1C(F)(F)F : reported solubility (mole fraction) = 0.111

----------
settings: in isopropanol, 328.15 K
PROPERTY_MEASURED: solubility (mole fraction)
Quick one: just the number, no unit, thanks!

The reported solubility (mole fraction) of the compound CNC[C@H](O)[C@@H](O)[C@H](O)[C@H](O)CO.Cc1c(Nc2ncccc2C(=O)O)cccc1C(F)(F)F was 0.00934

----------
conditions: in methanol, 283.15 K
PROPERTY_MEASURED: solubility (mole fraction)

// recorded solubility (mole fraction) for CNC[C@H](O)[C@@H](O)[C@H](O)[C@H](O)CO.Cc1c(Nc2ncccc2C(=O)O)cccc1C(F)(F)F : 0.0202
